# maps each entry to its IC50
Biological target: Recombinant full length PARP2 (Homo sapiens (Human), UniProt Q9UGN5)
Sequence (Q9UGN5 whole entry): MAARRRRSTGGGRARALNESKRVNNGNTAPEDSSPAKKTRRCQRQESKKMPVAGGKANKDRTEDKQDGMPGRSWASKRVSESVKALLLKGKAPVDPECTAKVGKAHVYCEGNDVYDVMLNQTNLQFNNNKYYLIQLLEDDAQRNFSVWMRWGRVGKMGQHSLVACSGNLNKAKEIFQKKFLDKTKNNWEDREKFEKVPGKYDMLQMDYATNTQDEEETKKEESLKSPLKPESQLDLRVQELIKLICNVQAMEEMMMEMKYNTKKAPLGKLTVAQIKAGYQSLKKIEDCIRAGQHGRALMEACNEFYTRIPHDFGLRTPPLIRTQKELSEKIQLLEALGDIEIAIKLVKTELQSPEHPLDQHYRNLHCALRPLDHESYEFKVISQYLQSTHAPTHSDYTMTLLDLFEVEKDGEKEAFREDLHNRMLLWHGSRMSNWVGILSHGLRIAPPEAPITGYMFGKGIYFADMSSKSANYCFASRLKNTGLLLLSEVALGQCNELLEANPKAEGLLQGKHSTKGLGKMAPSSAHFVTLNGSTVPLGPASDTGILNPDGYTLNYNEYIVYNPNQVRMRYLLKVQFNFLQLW
Experiment: FP assay PARP2 (fluorescence anisotropy probe displacement)
Settings: 60 nM PARP2, 8 nM fluorescent probe, 4 h, room temperature
Procedure: FP experiments were carried out at room temperature using no-binding black 384-well microplates. […] Fluorescence anisotropy of the probe when bound to the proteins was measured in the presence of test compounds or solvent control and the effect on anisotropy determined. Polarization values were read using an Envision plate reader using excitation and emission wavelengths of 590 and 630 nm, respectively. All FP values are expressed as mP units. […]

CCc1cc2cnc([C@@H](C)N3CC(Oc4ccc(C(=O)NC)nc4)C3)cc2[nH]c1=O (single isomer, unassigned) [Compound 48] ... > 10 µM

Data point: CNC(=O)c1ccc(OC2CN(Cc3cnc4cc(C5CC5)c(=O)[nH]c4c3)C2)cn1 ; IC50 = > 10 µM

The molecule identified as CCc1cc2cnc([C@H](C)N3CC(Oc4ccc(C(=O)NC)nc4F)C3)cc2[nH]c1=O (single isomer, unassigned; enantiomer 2) [Compound 50] registered its IC50 at > 10 µM

* * *

Test system: Caco-2 cell monolayers
Assay: Caco2 (A-B/B-A) permeability
Format: in vitro ADME
Conditions: PappB-A/PappA-B
quantity: Caco2 efflux ratio (ER)

CCc1nc2ccc([C@H](C)N3CC(Oc4ccc(C(=O)NC)nc4)C3)cc2[nH]c1=O (single isomer, unassigned) ... (ER = 2.51)
CCc1cc2cnc([C@@H](C)N3CC(Oc4ccc(C(=O)NC)nc4)C3)cc2[nH]c1=O (single isomer, unassigned) [Compound 48] ... (ER = 2.51)

* * *

Assay: Caco2 (A-B/B-A) permeability
Assay type: in vitro ADME
Details: human, Caco-2, pH 7.4, PappB-A/PappA-B; read-out: Caco2 efflux ratio (ER)
Procedure: The apical-to-basolateral (A-B) and basolateral-to-apical (B-A) transport of 5 μM test compounds in HBSS (10 mM HEPES, pH 7.4) was measured across Caco-2 cell monolayers (cells sourced from American Type Culture Collection, Manassas, Virgina). […] The efflux ratio (ER) was expressed as PappB-A/PappA-B. The integrity of the cell monolayers after 2 hours incubation was confirmed using the marker reagent Lucifer yellow.
quantity: efflux ratio at 120 min, 5 μM

CNC(=O)c1ccc(OC2CN(Cc3cnc4cc(C5CC5)c(=O)[nH]c4c3)C2)cn1 ... 9.29

[P] CCc1cc2cnc([C@H](C)N3CC(Oc4ccc(C(=O)NC)nc4F)C3)cc2[nH]c1=O (single isomer, unassigned; enantiomer 1)
[Q] CCc1cc2ncc(CN3CC4CC3CN4c3ccc(C(=O)NC)nc3)cc2[nH]c1=O (stereo not shown)
Query block: Select the item with the higher value of efflux ratio at 120 min, 5 μM from the options P and Q listed. // output: label of the selected item
Result block: Q

* * *

Assay: Thermodynamic solubility, FaSSiF
Format: physicochemical
Details: FaSSIF, 25 °C, thermodynamic from solid
quantity: solubility thermodynamic at 24 h (µg/mL)

CCc1cc2ncc([C@H](C)N3CC(Oc4ccc(C(=O)NC)nc4)C3)cc2[nH]c1=O ... 107

[I] CCc1cc2ncc([C@@H](C)N3CC(Oc4ccc(C(=O)NC)nc4)C3)cc2[nH]c1=O
[II] CCc1cc2ncc(CN3CC(Oc4ccc(C(=O)NC)nc4)C3)cc2[nH]c1=O
Query block: Decide: I or II , by lowest recorded solubility thermodynamic at 24 h. Respond with the label that goes with your answer.
Result block: II

// provenance: patent US20250289814A1
